Molecular target: human α4β2 nAChR subtype (Homo sapiens, UniProt P17787+P43681)
Sequence (P43681 29-627 limits assumed): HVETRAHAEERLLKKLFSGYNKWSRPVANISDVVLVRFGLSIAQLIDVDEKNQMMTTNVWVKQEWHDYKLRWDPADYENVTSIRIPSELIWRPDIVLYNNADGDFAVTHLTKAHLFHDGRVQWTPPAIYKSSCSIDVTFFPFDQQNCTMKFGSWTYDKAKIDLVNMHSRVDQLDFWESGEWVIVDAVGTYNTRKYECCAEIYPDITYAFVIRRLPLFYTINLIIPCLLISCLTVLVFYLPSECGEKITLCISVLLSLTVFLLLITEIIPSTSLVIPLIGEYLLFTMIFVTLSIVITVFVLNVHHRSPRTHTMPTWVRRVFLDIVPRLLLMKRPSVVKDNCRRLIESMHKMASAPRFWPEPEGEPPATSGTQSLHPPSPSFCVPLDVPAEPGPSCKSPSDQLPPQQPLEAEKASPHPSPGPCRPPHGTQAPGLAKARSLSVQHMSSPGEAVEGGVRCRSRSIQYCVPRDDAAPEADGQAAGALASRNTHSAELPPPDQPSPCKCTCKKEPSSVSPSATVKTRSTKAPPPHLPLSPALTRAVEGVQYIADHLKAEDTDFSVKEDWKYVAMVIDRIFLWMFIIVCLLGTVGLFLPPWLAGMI
Sequence (P17787 26-502): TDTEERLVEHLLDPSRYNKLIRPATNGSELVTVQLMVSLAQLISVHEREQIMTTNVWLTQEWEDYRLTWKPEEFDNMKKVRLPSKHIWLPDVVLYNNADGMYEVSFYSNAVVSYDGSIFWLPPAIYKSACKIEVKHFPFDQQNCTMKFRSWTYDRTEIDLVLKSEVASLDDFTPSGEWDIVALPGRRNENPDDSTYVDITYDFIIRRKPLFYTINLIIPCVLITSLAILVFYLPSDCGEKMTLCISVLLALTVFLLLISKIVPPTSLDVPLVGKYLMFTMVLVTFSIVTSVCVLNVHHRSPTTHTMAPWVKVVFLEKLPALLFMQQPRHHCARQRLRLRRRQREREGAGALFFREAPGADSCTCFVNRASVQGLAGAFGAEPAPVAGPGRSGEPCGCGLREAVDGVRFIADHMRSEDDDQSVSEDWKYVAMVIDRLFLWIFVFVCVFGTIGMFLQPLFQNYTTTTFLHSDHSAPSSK
Assay: Radioligand binding, [3H]nicotine, membranes from SH-EP1/human α4β2 clonal cells
Settings: [3H]nicotine 5 nM, SH-EP1/human α4β2 cell membranes
pKi: −log10 of the molar value.
Assign class by pKi: not lower than 7 means 1; lower than 7 means -1.

Input: Is pKi for C[C@@H]1C(C(=O)N2CC3CNCC3C2)[C@@H]1C (stereo partly drawn) [Example 10-51] at or above 7?
Output: 1

Input: Is pKi for O=C(C(F)F)N1CC2CNCC(C2)C1 [Example 10-59] at or above 7?
Output: 1

Input: Is pKi for O=C(C1CC2C=CC1C2)N1CC2CNCC2C1 (stereo not drawn) [Example 10-43] at or above 7?
Output: 1

Input: Is pKi for O=C([C@@H]1C[C@H]1F)N1CC2CNCC2C1 (stereo partly drawn) [Example 10-37] at or above 7?
Output: 1

Input: Is pKi for O=C(C1=CCCC1)N1CC2CNCC2C1 (stereo not drawn) [Example 10-8] at or above 7?
Output: -1

Input: Is pKi for CC(F)(F)C(=O)N1CC2CNCC(C2)C1 [Example 10-90] at or above 7?
Output: 1

Input: Is pKi for O=C(CO)N1CC2CNCC2C1 (stereo not drawn) [Example 10-27] at or above 7?
Output: -1

Input: Is pKi for COCC(=O)N1CC2CNCC(C2)C1 [Example 10-61] at or above 7?
Output: 1

Input: Is pKi for O=C(C(O)c1ccccc1)N1CC2CNCC(C2)C1 (stereo not drawn) [Example 10-64] at or above 7?
Output: -1

Input: Is pKi for O=C(C1CCC1)N1CC2CNCC2C1 (stereo not drawn) [Example 10-25] at or above 7?
Output: 1

Input: Is pKi for O=C(CF)N1CC2CNCC2C1 (stereo not drawn) [Example 10-11] at or above 7?
Output: 1
